Below: a set of entries, each annotated with reported IC50.
Test system: RT-4
Assay: Cytotoxicity against human RT4 cells after 96 hrs by crystal violet staining
Assay type: functional, cell-based
Settings: RT-4, 96 h
measured.metric: IC50

>>> measured_value("CN(C)c1cc(N)c2c3c(sc2n1)CCCC3")
"> 20 µM"
>>> measured_value("CN(C)c1cc(N)c2c(n1)[nH]c1ccccc12")
"> 20 µM"
>>> measured_value("COc1ccc(Cn2c3nc(N(C)C)cc(N)c3c3ccc4ccccc4c32)cc1")
"> 20 µM"
>>> measured_value("Nc1cc(N2CCCC2)nc2nc(-c3ccccc3)c(-c3ccccc3)cc12")
"12 µM"
>>> measured_value("Cc1cc2c(N)cc(N(C)C)nc2nc1-c1ccccc1")
"5 µM"
>>> measured_value("Cc1nc2nc(N(C)C)cc(N)c2cc1-c1ccccc1")
"> 20 µM"

* * *

System: RT-4
Assay: Cytotoxicity against human RT4 cells after 96 hrs by crystal violet staining
Type: functional, cell-based
Details: RT-4, 96 h
pIC50: −log10 of the molar value.
measured.metric: pIC50

>>> measured_value("CN(C)c1cc(N)c2c(-c3ccccc3)c(-c3ccccc3)oc2n1")
"< 4.70"
>>> measured_value("C=CCn1c(-c2ccccc2)c(-c2ccccc2)c2c(N)cc(N(C)C)nc21")
4.92
>>> measured_value("Cc1oc2nc(N(C)C)cc(N)c2c1C")
"< 4.70"
>>> measured_value("CN(C)c1cc(N)c2c3ccccc3n(C)c2n1")
"< 4.70"
>>> measured_value("Cc1c(C)n(Cc2ccccc2)c2nc(N(C)C)cc(N)c12")
4.71
>>> measured_value("CN(C)c1cc(N)c2c(-c3ccccc3)c(-c3ccccc3)n(Cc3ccccc3)c2n1")
"< 4.70"

* * *

# log10 IC50 annotations
System: RT-4
Assay: Cytotoxicity against human RT4 cells after 96 hrs by crystal violet staining
Assay type: functional, cell-based
Conditions: RT-4, 96 h
measured.metric: log10 IC50 (log10 of the value in µM)

>>> measured_value("CN(C)c1cc(N)c2c3ccc4ccccc4c3n(C)c2n1")
1.11
>>> measured_value("Nc1cc(N2CCCC2)nc2oc(-c3ccccc3)c(-c3ccccc3)c12")
1.25
>>> measured_value("CN(C)c1cc(N)c2cc(-c3ccccc3)c(-c3ccccc3)nc2n1")
1.16
>>> measured_value("CN(C)c1cc(N)c2ccc3ccccc3c2n1")
0.89
>>> measured_value("Cc1c2ccncc2c(C)c2c1[nH]c1ccccc12")
0.08
>>> measured_value("CN(C)c1cc(N)c2c(n1)[nH]c1c3ccccc3ccc12")
0.82
>>> measured_value("Cc1c(-c2ccccc2)sc2nc(N(C)C)cc(N)c12")
0.79
